Hey, just so you know, these numbers are from ChEMBL document CHEMBL1142956.

target: Protein arginine N-methyltransferase 1 (Homo sapiens, UniProt Q99873); assay: Inhibition of human recombinant GST-PRMT1 expressed in BL21 cells
Sequence (Q99873 whole entry): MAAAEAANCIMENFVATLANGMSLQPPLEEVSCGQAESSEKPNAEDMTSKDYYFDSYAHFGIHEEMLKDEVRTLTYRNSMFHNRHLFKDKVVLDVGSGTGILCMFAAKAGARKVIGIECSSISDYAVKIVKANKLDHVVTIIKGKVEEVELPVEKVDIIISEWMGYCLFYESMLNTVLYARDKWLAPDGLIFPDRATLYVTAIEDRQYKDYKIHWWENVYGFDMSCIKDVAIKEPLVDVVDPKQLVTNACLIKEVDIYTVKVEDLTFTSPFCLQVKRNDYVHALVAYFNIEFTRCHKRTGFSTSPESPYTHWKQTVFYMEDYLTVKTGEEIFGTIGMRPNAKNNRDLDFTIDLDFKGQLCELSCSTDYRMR
Readout Type: pIC50
In plain terms, pIC50 is the concentration in mol/L turned into minus its base-10 logarithm.

Here is how some molecules turned out for pIC50.
- Line Notation: "Cc1ccc(C(=O)Nc2ccc(S(=O)(=O)O)c3cc(S(=O)(=O)O)cc(S(=O)(=O)O)c23)cc1NC(=O)c1cccc(NC(=O)Nc2cccc(C(=O)Nc3cc(C(=O)Nc4ccc(S(=O)(=O)O)c5cc(S(=O)(=O)O)cc(S(=O)(=O)O)c45)ccc3C)c2)c1"
  Assayed Target: "Protein arginine N-methyltransferase 1 (Homo sapiens, UniProt Q99873)"
  pIC50: 4.74
- Line Notation: "O=C(O)c1ccccc1-c1c2cc(Br)c(=O)c(Br)c-2oc2c(Br)c(O)c(Br)cc12"
  Assayed Target: "Protein arginine N-methyltransferase 1 (Homo sapiens, UniProt Q99873)"
  pIC50: 5.85
- Line Notation: "Nc1c(Br)cc(C(=O)O)c(-c2c3cc(Br)c(=O)c(Br)c-3oc3c(Br)c(O)c(Br)cc23)c1Br"
  Assayed Target: "Protein arginine N-methyltransferase 1 (Homo sapiens, UniProt Q99873)"
  pIC50: 5.32

Below: the item to evaluate.
# pIC50 lookup, item O=C1C=CC(=C(c2ccc(O)cc2)c2ccccc2C(=O)O)C=C1
3.05
